biological target: Sodium/glucose cotransporter 2 (Homo sapiens, UniProt P31639); assay: Inhibition of human SGLT2 expressed in CHO cells assessed as [14C]AMG uptake after 45 mins
Sequence (P31639 whole entry): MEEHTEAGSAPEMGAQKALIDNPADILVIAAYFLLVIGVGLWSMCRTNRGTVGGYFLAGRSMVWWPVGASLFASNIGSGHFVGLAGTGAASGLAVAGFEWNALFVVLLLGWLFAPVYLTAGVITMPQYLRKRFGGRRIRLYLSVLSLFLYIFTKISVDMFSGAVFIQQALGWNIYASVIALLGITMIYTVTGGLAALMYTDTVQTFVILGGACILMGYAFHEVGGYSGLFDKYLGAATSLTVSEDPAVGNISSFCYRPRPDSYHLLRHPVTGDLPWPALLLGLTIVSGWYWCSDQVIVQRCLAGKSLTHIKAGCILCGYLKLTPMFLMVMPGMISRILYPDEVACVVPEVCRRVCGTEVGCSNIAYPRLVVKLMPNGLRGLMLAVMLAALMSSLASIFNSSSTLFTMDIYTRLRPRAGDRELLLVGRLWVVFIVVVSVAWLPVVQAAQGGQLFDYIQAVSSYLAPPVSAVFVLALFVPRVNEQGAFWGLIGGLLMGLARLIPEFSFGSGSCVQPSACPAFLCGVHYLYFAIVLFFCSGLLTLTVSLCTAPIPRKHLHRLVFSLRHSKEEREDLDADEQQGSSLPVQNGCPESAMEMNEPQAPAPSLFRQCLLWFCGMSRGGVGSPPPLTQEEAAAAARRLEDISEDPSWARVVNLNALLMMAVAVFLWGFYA
Readings of IC50 for the listed compounds
# number only, unit nM dropped from output

In the examples that follow, each entry is paired with its recorded IC50.
compound=OC[C@H]1C[C@@H](Oc2ccccc2Cc2ccc(O)cc2)[C@H](O)[C@@H](O)[C@@H]1O value_observed=290
compound=OC[C@H]1C[C@@H](Oc2ccccc2Cc2ccc(Cl)cc2)[C@H](O)[C@@H](O)[C@@H]1O value_observed=150
compound=CC(C)c1ccc(Cc2ccccc2O[C@@H]2C[C@H](CO)[C@@H](O)[C@H](O)[C@H]2O)cc1 value_observed=150

Consider the record given below.
In: Find the recorded IC50 belonging to CCOC(=O)OC[C@H]1O[C@@H](Oc2ccccc2Cc2ccc(OC)cc2)[C@H](O)[C@@H](O)[C@@H]1O [SERGLIFLOZIN ETABONATE] and report it.
Out: 260

###

target: Sodium/glucose cotransporter 2 (Homo sapiens, UniProt P31639); experiment: Inhibition of human SGLT2 expressed in CHO cells assessed as [14C]AMG uptake after 45 mins; assay type: cell-based
Entries whose IC50 is below 30 nM take class 1; entries at or above 30 nM take class 0.

smiles_str=CCOc1ccc(Cc2ccccc2O[C@@H]2C[C@H](CO)[C@@H](O)[C@H](O)[C@H]2O)cc1 group="class 0"
smiles_str=OC[C@H]1C[C@@H](Oc2ccccc2Cc2ccc(F)cc2)[C@H](O)[C@@H](O)[C@@H]1O group="class 0"
smiles_str=OC[C@H]1C[C@@H](Oc2ccccc2Cc2ccccc2)[C@H](O)[C@@H](O)[C@@H]1O group="class 0"
smiles_str=COc1ccc(Cc2ccccc2O[C@@H]2O[C@H](CO)[C@@H](O)[C@H](O)[C@H]2O)cc1 group="class 1"

Could you now look at the following molecule, please?
In: Does the reported IC50 of the following molecule sit strictly below 30 nM? COc1ccc(Cc2ccccc2O[C@@H]2C[C@H](CO)[C@@H](O)[C@H](O)[C@H]2O)cc1
Out: class 0

###

biological target: Sodium/glucose cotransporter 2 (Homo sapiens, UniProt P31639); test: Inhibition of human SGLT2 expressed in CHO cells assessed as [14C]AMG uptake after 45 mins
Readings of pIC50 for the listed molecules
// pIC50: -log10(molar conc.)

smiles_str=CSc1ccc(Cc2ccccc2O[C@@H]2C[C@H](CO)[C@@H](O)[C@H](O)[C@H]2O)cc1 value_observed=7.72

In: Find the recorded pIC50 belonging to OC[C@H]1C[C@@H](Oc2ccccc2Cc2ccc(C3CC3)cc2)[C@H](O)[C@@H](O)[C@@H]1O and report it.
Out: 7.96

In: Find the recorded pIC50 belonging to CCc1ccc(Cc2ccccc2O[C@@H]2C[C@H](CO)[C@@H](O)[C@H](O)[C@H]2O)cc1 and report it.
Out: 7.55

In: Find the recorded pIC50 belonging to Cc1ccc(Cc2ccccc2O[C@@H]2C[C@H](CO)[C@@H](O)[C@H](O)[C@H]2O)cc1 and report it.
Out: 7.23

In: Find the recorded pIC50 belonging to CCCc1ccc(Cc2ccccc2O[C@@H]2C[C@H](CO)[C@@H](O)[C@H](O)[C@H]2O)cc1 and report it.
Out: 6.92

In: Find the recorded pIC50 belonging to OC[C@H]1C[C@@H](Oc2ccccc2Cc2ccc(C(F)(F)F)cc2)[C@H](O)[C@@H](O)[C@@H]1O and report it.
Out: 6.92

In: Find the recorded pIC50 belonging to C=Cc1ccc(Cc2ccccc2O[C@@H]2C[C@H](CO)[C@@H](O)[C@H](O)[C@H]2O)cc1 and report it.
Out: 7.54
